target: mTOR (Homo sapiens)
Construct: endogenous in cells; host or cells: Jurkat cells (ATCC TIB-152, clone E6-1), lysate
protocol.description: mTOR kinobeads assay (dot blot detection)
Type: binding
condition.notes: Table 2, Jurkat cell lysate, read-out: Inhibition values (IC50) mTor
parameter: IC50

Guide cases for IC50, answers given:
* C[C@H]1COCCN1c1cc(-c2ccccc2S(C)(=O)=O)nc(-c2ccc(NC(=O)NC3CC3)cc2)n1 | 100 to 1000 nM
* O=C(Nc1ccncc1)Nc1ccc(-c2nccc(N3CC4CCC(C3)O4)n2)cc1 | 100 to 1000 nM
* C[C@H]1COCCN1c1cc(-c2cncc(S(C)(=O)=O)c2)nc(-c2ccc(NC(=O)NC3CC3)cc2)n1 | 1000 to 10000 nM
* CS(=O)(=O)c1ccc(F)cc1-c1cc(-c2ccc(NC(=O)NCCO)cc2)nc(N2CCOCC2)n1 | 100 to 1000 nM
* C[C@H]1COCCN1c1cc(-c2cc(F)ccc2S(C)(=O)=O)nc(-c2ccc(NC(=O)NCCO)cc2F)n1 | 100 to 1000 nM
* CCNC(=O)Nc1ccc(-c2cc(-c3ccccc3NC(C)=O)nc(N3CCOC[C@@H]3C)n2)cc1 | 1000 to 10000 nM
* CCNC(=O)Nc1ccc(-c2cc(-c3ccccc3CO)nc(N3CCOC[C@@H]3C)n2)cc1 | 1000 to 10000 nM
* CCNC(=O)Nc1ccc(-c2nccc(N3CCOCC3)n2)cc1 | 1000 to 10000 nM
* C[C@H]1COCCN1c1cc(-c2cccc(S(C)(=O)=O)c2)nc(-c2ccc(NC(=O)NC3CC3)cc2)n1 | 1000 to 10000 nM

Now let's try a different one.
Exam item: Supply measured IC50 of `C[C@H]1COCCN1c1cc(-c2ccccn2)nc(-c2ccc(NC(=O)NCCO)cc2)n1` in your reply.
Marked response: 100 to 1000 nM
